TARGET OF ASSAY: human IgG (available from the Chemo-Sero-Therapeutic Research Institute) (human)
PROCEDURE DETAILS: binding capacity; binder immobilised on agarose gel, human IgG, acid elution, A280
RECORDED ENDPOINT: IgG Binding Capacity (mg/mL gel)

| BINDER | IgG Binding Capacity [mg/mL gel] |
| --- | --- |
| modified product PL-055 of immunoglobulin-binding domain 4 (designed binder) MAQHDEAGLALEKPEEPREEVTIRVNLIFADGFTQTAEFKGTFEEATAEAYRYADLLAKVNGEYTADLEDGGYTINIKFAGALPSKSKKILKEAKKLNKAQAPKKKK | 57.3 |
| modified product PL-058 of immunoglobulin-binding domain 4 (designed binder) MAQHDEAGLALEKPEEPREEVTIKVNLIFADGRTQTAEFRGTFEEATAEAYRYADLLAKVNGEYTADLEDGGYTINIKFAGALPSKSKKILKEAKKLNKAQAPKKKK | 58.6 |
| chimeric protein PL-014 containing immunoglobulin-binding domain 4 of Protein L (designed binder) MAQHDEAGLALETPEEPKEEVTIKVNLIFADGKTQTAEFKGTFEEATAEAYRYADLLAKVNGEYTADLEDGGYTINIKFAGALPSKSKKILKEAKKLNKAQAPKKKK | 57 |
| modified product PL-054 of immunoglobulin-binding domain 4 (designed binder) MAQHDEAGLALEKPEEPREEVTIRVNLIFADGQTQTAEFKGTFEEATAEAYRYADLLAKVNGEYTADLEDGGYTINIKFAGALPSKSKKILKEAKKLNKAQAPKKKK | 58.4 |
| modified product PL-027 of immunoglobulin-binding domain 4 (designed binder) MAQHDEAGLALETPEEPREEVTIRVNLIFADGRTQTAEFKGTFEEATAEAYRYADLLAKVNGEYTADLEDGGYTINIKFAGALPSKSKKILKEAKKLNKAQAPKKKK | 58.6 |
| modified product PL-047 of immunoglobulin-binding domain 4 (designed binder) MAQHDEAGLALEKPEEPKEEVTIRVNLIFADGRTQTAEFKGTFEEATAEAYRYADLLAKVNGEYTADLEDGGYTINIKFAGALPSKSKKILKEAKKLNKAQAPKKKK | 59.2 |
| chimeric protein PL-023 containing immunoglobulin-binding domain 3 of Protein L (designed binder) MAQHDEAGLALETPEEPKEEVTIKVNLIFADGKIQTAEFKGTFEEATAKAYAYANLLAKENGEYTADLEDGGNTINIKFAGALPSKSKKILKEAKKLNKAQAPKKKK | 52.2 |
| modified product PL-061 of immunoglobulin-binding domain 3 (designed binder) MAQHDEAGLALETPEEPREEVTIRVNLIFADGRIQTAEFRGTFEEATAKAYAYANLLAKENGEYTADLEDGGNTINIKFAGALPSKSKKILKEAKKLNKAQAPKKKK | 59.8 |
| modified product PL-036 of immunoglobulin-binding domain 4 (designed binder) MAQHDEAGLALEKPEEPREEVTIRVNLIFADGRTQTAEFKGTFEEATAEAYRYADLLAKVNGEYTADLEDGGYTINIKFAGALPSKSKKILKEAKKLNKAQAPKKKK | 59.1 |
| modified product PL-053 of immunoglobulin-binding domain 4 (designed binder) MAQHDEAGLALEKPEEPREEVTIRVNLIFADGETQTAEFKGTFEEATAEAYRYADLLAKVNGEYTADLEDGGYTINIKFAGALPSKSKKILKEAKKLNKAQAPKKKK | 55.9 |
| modified product PL-050 of immunoglobulin-binding domain 4 (designed binder) MAQHDEAGLALEKPEEPREEVTIRVNLIFADGTTQTAEFKGTFEEATAEAYRYADLLAKVNGEYTADLEDGGYTINIKFAGALPSKSKKILKEAKKLNKAQAPKKKK | 59 |
| modified product PL-028 of immunoglobulin-binding domain 4 (designed binder) MAQHDEAGLALEKPEEPKEEVTIKVNLIFADGKTQTAEFRGTFEEATAEAYRYADLLARVNGEYTADLEDGGYTINIRFAGALPSKSKKILKEAKKLNKAQAPKKKK | 60.1 |
| modified product PL-048 of immunoglobulin-binding domain 4 (designed binder) MAQHDEAGLALEKPEEPKEEVTIRVNLIFADGRTQTAEFRGTFEEATAEAYRYADLLAKVNGEYTADLEDGGYTINIKFAGALPSKSKKILKEAKKLNKAQAPKKKK | 57.9 |
| modified product PL-038 of immunoglobulin-binding domain 4 (designed binder) MAQHDEAGLALERPEEPREEVTIRVNLIFADGRTQTAEFRGTFEEATAEAYRYADLLARVNGEYTADLEDGGYTINIRFAGALPSKSKKILKEAKKLNKAQAPKKKK | 63.6 |
| modified product PL-052 of immunoglobulin-binding domain 4 (designed binder) MAQHDEAGLALEKPEEPREEVTIRVNLIFADGHTQTAEFKGTFEEATAEAYRYADLLAKVNGEYTADLEDGGYTINIKFAGALPSKSKKILKEAKKLNKAQAPKKKK | 58.5 |
| modified product PL-043 of immunoglobulin-binding domain 4 (designed binder) MAQHDEAGLALERPEEPKEEVTIKVNLIFADGKTQTAEFKGTFEEATAEAYRYADLLAKVNGEYTADLEDGGYTINIKFAGALPSKSKKILKEAKKLNKAQAPKKKK | 59.3 |
